test system: MS2 coat protein; assay: apparent KD of MS2 coat protein; designed switch direction (-1 OFF switch, 1 ON switch): 1; higher = weaker reporter binding; conditions: Eterna round: R95; input ligand: FMN 200 uM
So I've got a bunch of sequences here, and I need their apparent KD of MS2 coat protein values.
Numbers only, in nM.

Record excerpt, results attached:
{"monomerSequence": "UUAAGCAGCGGGCAGGAUAUGUAUUAAAAUACAUGAGGAUCACCCAUGUGCAGGUGUAACACCUGACAGAAGGGCCAAUCGGUGC [Soteed - 9] (puzzle: Same State 2)", "u": "nM", "apparent KD of MS2 coat protein": 36.3}
{"monomerSequence": "CACAAUCUAUCUGAGGAUAUCAUGAAAAAAACAUGAGGAUCACCCAUGUGCAGGAAAACUGCAUAUGAGAAGGCAGAUAGAUUGA [salish99_SS2_r3_016] (puzzle: Same State 2)", "u": "nM", "apparent KD of MS2 coat protein": 38}

Query: Reported apparent KD of MS2 coat protein, sequence AUAAGUUUGAUGCUCGUCUCUUCGUACAGACAUGAGGAUCACCCAUGUAGUCGGGAAGUAGCCCGGCCAGUAUGACC [Usraisqu] (puzzle: Sensor for hsa-mir-208a) : ____
Reply: 197

---

system: K4 kissing-loop RNA reporter; assay: apparent KD of K4 kissing-loop reporter; higher = weaker reporter binding; conditions: Eterna round: R107; input ligand: none;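 note: bound reporter read as fluorescence of individual clusters on recovered sequencing chips by microscopy, with normalized cluster intensities fitted with a binding model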
endpoint: apparent KD of K4 kissing-loop reporter (nM)
Numbers only, in nM.

Here is how some sequences turned out for apparent KD of K4 kissing-loop reporter.
{"monomerSequence": "CACCGGACGAAAGAUACCAGUUACUAUAUUAGGGUGCCUUGGCUAGUGAUGUUAGAGAGUAACCCUUGGCAGCUUUGGUACUUAU [theeternabot_exclusion_KL_Theo_B_21]", "apparent KD of K4 kissing-loop reporter (nM)": 390}
{"monomerSequence": "AGUCGAGAUUAUAGACUCGACAGGUCAGAAGGAGCGACGAAUUCGUCAGGUAGGUCGCUGACAUAGCAGUGAUGUUGCUAUACGG [Arg A SS t1]", "apparent KD of K4 kissing-loop reporter (nM)": 150}
{"monomerSequence": "GGUUUAUAGGAGGAUACCAGUACAAAUAAAGUACAUUAAUAGUAGAGUGAUGUUCUAAAGUACCCUUGGCAGCUUAGAUUAAGUU [ExTheophylB.G]", "apparent KD of K4 kissing-loop reporter (nM)": 111}
{"monomerSequence": "CUUAAGAUAUGAGUGAUGUUUAUGUCCGAAGGAGCGUGCGAAAGUACAGGUAGGUCGCGGAUGUGAGUGAUGUUUAUGUAAGCGA [KL-XArg-A14 #analogue]", "apparent KD of K4 kissing-loop reporter (nM)": 120}
{"monomerSequence": "GGAUAGGACAGAGGAUAUGGACAGUCUACAAAGUAGGCUGAAUAAAUCCUUGAAUGGAGUGAUGUUCCAGAAGGCUGUCCUAUCG [FmnBX 22 #SwitchBubble #StaticStem #Palindromic]", "apparent KD of K4 kissing-loop reporter (nM)": 503}

Now examine the next entry.
Query: Item CGGCCCGGCGCGGCCGCCACUGUGCCUGGGCGCUUGCCGAGUGAUGUUCGUCGGCGGUCGGGUGGCAGGACCGGGCGCCGGUCCG [BDazzled - #26 SS Tryptophan B] has what recorded apparent KD of K4 kissing-loop reporter?
Reply: 131

---

Can you tell me apparent KD of MS2 coat protein for the items I'm about to list?
tested on: MS2 coat protein; assay: apparent KD of MS2 coat protein; designed switch direction (-1 OFF switch, 1 ON switch): -1; higher = weaker reporter binding; settings: input ligand: microRNA oligo, concentration not stated
Give bare numbers, in nM.

{"monomerSequence": "UAUCGGGACUGAGGAUAUUCGUUCGAACGCGAAGAAGAAGGUAGUGUCAGGGACAUGAGGAUCACCCAUGUGAUUUCAGUCCCA [JL ViennaUCT Erinle mod 5] (Eterna round: R96, puzzle: Exclusion NG 1)", "endpoint": "apparent KD of MS2 coat protein", "reportedResult": 56.1}
{"monomerSequence": "CACCGUUAGAGAGGAUAUCGUACAUGAGGAUCACCCAUGUAAUAAAUGAGAAUUUCGGAUGUAUGCGAGAAGGCUCGAAUCGGC [Ostracism 33 - Jieux - Exclusion NG 2] (Eterna round: R96, puzzle: Exclusion NG 2)", "endpoint": "apparent KD of MS2 coat protein", "reportedResult": 38.6}
{"monomerSequence": "AGCUGUGGCCGAGGAUAUCUAAAACUCAAAACCGAAAUAUAAUCGGACAUGAGGAUCACCCAUGUAGAGAAGGCGGUCUCAGCA [Eli eng2 - 078] (Eterna round: R96, puzzle: Exclusion NG 2)", "endpoint": "apparent KD of MS2 coat protein", "reportedResult": 59.4}

Okay, now this sequence:
Query: Which apparent KD of MS2 coat protein is listed for GUAAAUCAUGUAGGAUAUGCAUAGCAAAGCUAUGCAGAAGGACAUGAGGAUCACCCAUGUCAUUCCGUCUGGAGACAGACGGAA [Mat - Exclusion NG 1 - Mod of JL - D59] (Eterna round: R96, puzzle: Exclusion NG 1) ?
Reply: 22

---

tested on: MS2 coat protein; experiment: apparent KD of MS2 coat protein; higher = weaker reporter binding; details: Eterna round: R107; input ligand: theophylline 20 uM
Dear colleague, classification is by apparent KD of MS2 coat protein, with ranges listed here: low interval = under 30 nM, middle interval = from 30 nM up to 100 nM, high interval = 100 nM and over

Completed entries (count: 3):
{"monomerSequence": "UUGACAUGAGGAUCACCCAUGUAAACUGAAGGAGCGUCGAAAAUGACAGGUAGGUCGCAGAAUAAUAAAGGUGAUGGUAAAUAUU [Exclusion Arginine AGF1]", "assayedTarget": "MS2 coat protein", "groupLabel": "middle interval"}
{"monomerSequence": "UGUAACAUGAGGAUCACCCAUGUGAGUGAUACCAGACUAGUGUUAGUCCCUUGGCAGCACGCUGGGCGAGUGUGUAGUCUAUGCG [Same State - Theophylline A (Freestyle 16)]", "assayedTarget": "MS2 coat protein", "groupLabel": "high interval"}
{"monomerSequence": "AAUUUAAACGGAAGGAGCGUCACUUAAUAUCAACAUGAGGAUCACCCAUGUAAGGGUUGUAGACAGGUAGGUCGCCGUCAUUUGA [JR_AAArginiB_Sub023]", "assayedTarget": "MS2 coat protein", "groupLabel": "middle interval"}

Query: Band assignment needed for `UGUAUGUGAUCUGAUACCAGCGUUGAUAACCUGAGGAUCACCCUGGUAAGGCGAAAGCCACGCCCUUGGCAGCAGAUCGCAUACU` please.
Reply: middle interval

Query: Classify this sequence: CGAGUAAGAACAAUCGAAUAACGGUUUUCGCGAGGACCGGUACGGCCGCCACUCGUGUGAAAUAACACAUGAGGAUCACCCAUGU [3'end-1]
Reply: low interval

Query: Could you tell me which band ACAUGAGGAUCCGAUACCAGCCACAUGAGGAUCACCCAUGUAGUACAUGAGGAUCACCCAGGCCCUUGGCAGCGGACAUGAGGAU [Exclusion - Theophylline B] belongs to?
Reply: high interval

Query: Field: class (apparent KD of MS2 coat protein) — entry: UGUAUGUGAUUUGAUACCAGACCAACUGGUAAAACAUGAGGAUCACCCAUGUAAACUUGGGUCCCUUGGCAGCAAAUCGCAUACU [SSTheo B #22]
Reply: middle interval

Query: For the record ACACGUGAGGAUCAUCCAUGUGCCCAUGAAGGAGCGUGGGAAACCACAGGUAGGUCGCAUGACAUGAGGAUCACCCAUGUUUAUU [#04 Exclusion - Arginine A] , report the class its apparent KD of MS2 coat protein corresponds to.
Reply: high interval

---

tested on: MS2 coat protein; test: apparent KD of MS2 coat protein; designed switch direction (-1 OFF switch, 1 ON switch): 1; higher = weaker reporter binding; details: Eterna round: R95; input ligand: FMN 200 uM
Class field: derived from apparent KD of MS2 coat protein; ranges low group (below 20 nM), middle group (20 nM to below 100 nM), high group (100 nM or more)

Query: Which category does the recorded apparent KD of MS2 coat protein put GGCUAUCGCGUACGAUAGCUUAAGCGUGUACAUGAGGAUCACCCAUGUCAUGUACAAGCUUUUUGCUCGUCUUAUUG [JL-shm-2.34 JL mod] (puzzle: Sensor for hsa-mir-208a) in?
Reply: high group

Query: Using the reported apparent KD of MS2 coat protein, which band applies to UCUUGGUUUUUGCUCGUUUUUUGUGUUGAACAUGAGGAUCACCCAUGUAUUGUACGGUCCAAUUUAAUAAUGGUCCA [JMF 37] (puzzle: Sensor for hsa-mir-208a) ?
Reply: middle group

Query: Into which category would you place GUGGCCCAGGCACAGGAUAUGUUUCUCGUAACAUGAGGAUCACCCAUGUGCCUAUGAGAUUGUUUGCAGAAGGGUGCACGCCACG [JL Atiinbe mod 03] (puzzle: Same State 2) ?
Reply: middle group

Query: Class (by measured apparent KD of MS2 coat protein) for UGCAUACAUGAGGAUCACCCAUGUCAACUUAGUCGAGGAUAUGGGCAGCCGUGAGGCGAACCAGAAGGCGAAUUGU [JL-ss1-3.02 ViennaUCT mod] (puzzle: Same State 1)
Reply: low group

Query: # classify by apparent KD of MS2 coat protein band: UACAAUCUAUCUGAGGAUAUCAUGAUUCUAACAUGAGGAUCACCCAUGUGCAGGAAAACUGCAUAUGAGAAGGCAGAUAGAUUGU [salish99_ss2_r3_072] (puzzle: Same State 2)
Reply: middle group

Query: Class for UCUUGGUUUUUGCUCGUUUUUUGUGUUGAACAUGAGGAUCACCCAUGUAUUGUACGGUCCGGUUUAGUAGUGGUCCG [JMF 17] (puzzle: Sensor for hsa-mir-208a) ?
Reply: middle group

Query: Bin? GUAAUACAUGAGGAUCACCCAUGUCAAUGUAGUCGAGGAUAUGGGUAGCUAUGAGGCGUUCUAGAAGGCGACGAGC [Same State 1 - Mod of Vinnie Teenbexe v.3] (puzzle: Same State 1)
Reply: high group

Where do the numbers come from? From the supplement of paper PMC9170038.
